Source listed as PubChem BioAssay (Tox21).

- method: A CellTox Green Cytotoxicity Assay to monitor cytotoxicity in HepG2 cells - 8 hour (AID 1224890); note: nearly all actives have a fitted effect of over 45% in size
- runParameters: CellTox Green fluorescence; series mostly up to 76.8 µM
- From the text: National Center for Advancing Translational Sciences [NCATS] NIH Chemical Genomics Center [NCGC] U.S. Environmental Protection Agency [EPA] National Institutes of Environmental Health Sciences [NIEHS] National Toxicology Program [NTP] Cell-based models are critical for drug discovery. […] Viable cells produce no appreciable increases in fluorescence. Therefore, the fluorescence signal produced by the binding interaction with dead cell DNA is proportional to cytotoxicity. […]
Results filed as inconclusive are left out. Active and inactive are the calls of the source. Calls come from the whole dose curve; as a rule, active = well fitted activation curve with a large enough effect in the repeat runs; inconclusive = weak or mixed curves; inactive = flat fitted curve, though single readings scatter.

[
  {
    "smi": "Cc1[nH]nc2c1N=C(c1ccccc1Cl)c1cc([N+](=O)[O-])ccc1N2",
    "outcome": "inactive"
  },
  {
    "smi": "Nc1c2ccccc2nc2ccccc12",
    "outcome": "inactive"
  },
  {
    "smi": "CCCCCOc1ccccc1/C(=C\\SC)n1ccnc1",
    "outcome": "inactive"
  },
  {
    "smi": "Oc1cccc(-c2c3nc(c(-c4cccc(O)c4)c4ccc([nH]4)c(-c4cccc(O)c4)c4nc(c(-c5cccc(O)c5)c5ccc2[nH]5)CC4)C=C3)c1",
    "outcome": "inactive"
  },
  {
    "smi": "CCCC/C=C/CCCCO",
    "outcome": "inactive"
  },
  {
    "smi": "COc1cccc(N)c1",
    "outcome": "inactive"
  }
]

* * *

- method: qHTS assay to identify small molecule antagonists of the retinoid-related orphan receptor gamma (ROR-gamma) signaling pathway - cell viability counter screen (AID 1159520); note: nearly all actives have a fitted effect of over 50% in size
- runParameters: Tet-on RORgamma CHO cells viability, ATP luminescence, 16 h; series mostly up to 92.4 µM
Inconclusive results are not listed. Active and inactive are the calls of the source. Calls come from the whole dose curve; as a rule, active = well fitted cell-killing curve with a large enough effect in the repeat runs; inconclusive = weak or mixed curves, or effect the other way; inactive = no such curve, though single readings can be large or run the other way.
Outcomes: active, inactive

[
  {
    "compound": "COC(=O)c1cc(Cl)ccc1OC",
    "group": "inactive"
  },
  {
    "compound": "CCCCCCCCCCCCCCCCCC[N+](C)(C)Cc1ccccc1",
    "group": "active"
  },
  {
    "compound": "CC(C)c1ccc2c(c1)CC[C@H]1[C@](C)(CN)CCC[C@]21C",
    "group": "active"
  },
  {
    "compound": "CCC(C)(C)C1CCCCC1OC(C)=O (centres undefined)",
    "group": "inactive"
  },
  {
    "compound": "Cc1cc(O)c(C(C)(C)C)cc1Sc1cc(C(C)(C)C)c(O)cc1C",
    "group": "active"
  },
  {
    "compound": "COC(=O)C1=C(C)NC(C)=C(C(=O)OCCc2ccc(N3CCN(C(c4ccccc4)c4ccccc4)CC3)cc2)C1c1cccc([N+](=O)[O-])c1 (centres undefined)",
    "group": "inactive"
  },
  {
    "compound": "CN(C)C(=O)C1(N2CCCCC2)CCN(CC[C@@]2(c3ccc(Cl)c(Cl)c3)CN(C(=O)c3ccccc3)CCO2)CC1",
    "group": "active"
  },
  {
    "compound": "CC1=NC(C)OC1C (centres undefined)",
    "group": "inactive"
  },
  {
    "compound": "CCCCCCCCCCC=O",
    "group": "inactive"
  },
  {
    "compound": "CCN(CC)CCCC(C)Nc1c2ccc(Cl)cc2nc2ccc(OC)cc12 (centres undefined)",
    "group": "inactive"
  },
  {
    "compound": "Oc1cc2ccccc2c2ccccc12",
    "group": "active"
  },
  {
    "compound": "CCCCCCCCNC(C)C(O)c1ccc(SC(C)C)cc1 (centres undefined)",
    "group": "active"
  },
  {
    "compound": "CCCCCCCCCCCC[N+](C)(C)CCCCCCCCCCCC",
    "group": "active"
  },
  {
    "compound": "OCc1c[nH]c2ccccc12",
    "group": "inactive"
  },
  {
    "compound": "CSc1ccc(C(=O)c2[nH]c(=O)[nH]c2C)cc1",
    "group": "inactive"
  },
  {
    "compound": "N=C1N=C(N)c2ccccc21",
    "group": "active"
  },
  {
    "compound": "CCCCC(CC)CN=C(N)NC(N)=NCCCCCCN=C(N)NC(N)=NCC(CC)CCCC (centres undefined)",
    "group": "active"
  },
  {
    "compound": "CCCCCCCCS(=O)C(C)Cc1ccc2c(c1)OCO2 (centres undefined)",
    "group": "inactive"
  },
  {
    "compound": "Cc1nc(-c2ccc3c(c2)CCN(CCC2CCC(NC(=O)/C=C/c4ccc(F)cc4)CC2)CC3)no1 (centres undefined)",
    "group": "active"
  },
  {
    "compound": "Cc1ccc(-n2nc(C(C)(C)C)cc2NC(=O)Nc2ccc(OCCN3CCOCC3)c3ccccc23)cc1",
    "group": "inactive"
  },
  {
    "compound": "O=C1c2ccccc2Cc2ccccc21",
    "group": "inactive"
  },
  {
    "compound": "Cc1cc(O)c(C(C)(C)C)cc1C(C)(C)C",
    "group": "active"
  },
  {
    "compound": "CCCCN(CCCC)C(=O)N(CCCC)CCCC",
    "group": "inactive"
  },
  {
    "compound": "CCC1=C[C@@H]2CN(C1)Cc1c([nH]c3ccccc13)[C@@](C(=O)OC)(c1cc3c(cc1OC)N(C)[C@H]1[C@@](O)(C(=O)OC)[C@H](OC(C)=O)[C@]4(CC)C=CCN5CC[C@]31[C@@H]54)C2",
    "group": "inactive"
  }
]

* * *

- experimentalSystem: Cytochrome P450 2D6 (Homo sapiens)
- method: Cytochrome P450 Family 2 Subfamily D Member 6 (CYP2D6) small molecule antagonists: luciferase reporter qHTS assay (AID 1671196); note: nearly all actives have a fitted effect of over 50% in size
- runParameters: P450-Glo CYP2D6 enzyme assay, luciferin luminescence, 1 h; series mostly up to 115 µM
Inconclusive results are not listed. Activity calls are given as the source filed them. Calls come from the whole dose curve; as a rule, active = well fitted inhibition curve with a large enough effect in the repeat runs; inconclusive = weak or mixed curves; inactive = no such curve, though single readings can be large or run the other way.
Outcomes: active, inactive

[
  {
    "compound": "O=c1cc(-c2ccc(O)cc2)oc2cc(O)cc(O)c12",
    "experimentalSystem": "Cytochrome P450 2D6 (Homo sapiens)",
    "group": "active"
  },
  {
    "compound": "Cc1cc(O)c(C(C)(C)C)cc1Sc1cc(C(C)(C)C)c(O)cc1C",
    "experimentalSystem": "Cytochrome P450 2D6 (Homo sapiens)",
    "group": "active"
  },
  {
    "compound": "CCCCC(CC)COP(=O)(O)OCC(CC)CCCC (configuration not stated)",
    "experimentalSystem": "Cytochrome P450 2D6 (Homo sapiens)",
    "group": "active"
  },
  {
    "compound": "CC(C)c1ccc2c(c1)CC[C@H]1[C@](C)(CN)CCC[C@]21C",
    "experimentalSystem": "Cytochrome P450 2D6 (Homo sapiens)",
    "group": "active"
  },
  {
    "compound": "OCCN1CCN(CC/C=C2/c3ccccc3Sc3ccc(C(F)(F)F)cc32)CC1",
    "experimentalSystem": "Cytochrome P450 2D6 (Homo sapiens)",
    "group": "active"
  },
  {
    "compound": "CCCN(CCC)C(=O)C(CCC(=O)OCCCN1CCN(CCOC(=O)Cc2c(C)n(C(=O)c3ccc(Cl)cc3)c3ccc(OC)cc23)CC1)NC(=O)c1ccccc1 (configuration not stated)",
    "experimentalSystem": "Cytochrome P450 2D6 (Homo sapiens)",
    "group": "active"
  },
  {
    "compound": "O=c1[nH]cnc2nc[nH]c12",
    "experimentalSystem": "Cytochrome P450 2D6 (Homo sapiens)",
    "group": "inactive"
  },
  {
    "compound": "CC[C@H](c1ccc(O)cc1)[C@@H](CC)c1ccc(O)cc1",
    "experimentalSystem": "Cytochrome P450 2D6 (Homo sapiens)",
    "group": "inactive"
  },
  {
    "compound": "CCOC(=O)c1nc(C(Cl)(Cl)Cl)n(-c2ccc(Cl)cc2Cl)n1",
    "experimentalSystem": "Cytochrome P450 2D6 (Homo sapiens)",
    "group": "active"
  },
  {
    "compound": "C=C(C)C(=O)OCC(O)COc1ccc(C(C)(C)c2ccc(OCC(O)COC(=O)C(=C)C)cc2)cc1 (configuration not stated)",
    "experimentalSystem": "Cytochrome P450 2D6 (Homo sapiens)",
    "group": "active"
  },
  {
    "compound": "CCCCCCCCCCCCCCCS(=O)(=O)Oc1ccccc1",
    "experimentalSystem": "Cytochrome P450 2D6 (Homo sapiens)",
    "group": "inactive"
  },
  {
    "compound": "CCCCCCCCCCCCCCCCCC[N+](C)(C)C",
    "experimentalSystem": "Cytochrome P450 2D6 (Homo sapiens)",
    "group": "active"
  },
  {
    "compound": "O=[N+]([O-])c1cc(Cl)c(Cl)c(Cl)c1Cl",
    "experimentalSystem": "Cytochrome P450 2D6 (Homo sapiens)",
    "group": "inactive"
  },
  {
    "compound": "N=C1C=CC(=C(c2ccc(N)cc2)c2ccc(N)cc2)C=C1",
    "experimentalSystem": "Cytochrome P450 2D6 (Homo sapiens)",
    "group": "active"
  },
  {
    "compound": "CCN(CCC#N)c1ccc(N=Nc2c(Cl)cc([N+](=O)[O-])cc2Cl)cc1",
    "experimentalSystem": "Cytochrome P450 2D6 (Homo sapiens)",
    "group": "inactive"
  },
  {
    "compound": "CCCCCCCCCCCCCCCC[N+](C)(C)CCN(Cc1ccc(OC)cc1)c1ncccn1",
    "experimentalSystem": "Cytochrome P450 2D6 (Homo sapiens)",
    "group": "active"
  },
  {
    "compound": "C/C=C1/C(=O)C[C@H]2[C@@H]3CCC4=CC(=O)CC[C@]4(C)[C@H]3CC[C@]12C",
    "experimentalSystem": "Cytochrome P450 2D6 (Homo sapiens)",
    "group": "inactive"
  },
  {
    "compound": "CCN(Cc1cccnc1)C(=O)c1cccc(Cl)c1[C@]1(C)C(=O)N(Cc2ccc(OC)cc2OC)c2ccc(Cl)cc21",
    "experimentalSystem": "Cytochrome P450 2D6 (Homo sapiens)",
    "group": "active"
  },
  {
    "compound": "O=C(Oc1ccccc1)c1ccccc1C(=O)Oc1ccccc1",
    "experimentalSystem": "Cytochrome P450 2D6 (Homo sapiens)",
    "group": "inactive"
  },
  {
    "compound": "C/C(=C(/OCCOc1ccc(Cl)cc1)c1ccc(Cl)cc1Cl)n1ccnc1",
    "experimentalSystem": "Cytochrome P450 2D6 (Homo sapiens)",
    "group": "active"
  },
  {
    "compound": "Nc1ccc2cc(S(=O)(=O)O)cc(O)c2c1N=Nc1ccccc1C(F)(F)F",
    "experimentalSystem": "Cytochrome P450 2D6 (Homo sapiens)",
    "group": "inactive"
  },
  {
    "compound": "COCCCC/C(=N\\OCCN)c1ccc(C(F)(F)F)cc1",
    "experimentalSystem": "Cytochrome P450 2D6 (Homo sapiens)",
    "group": "active"
  },
  {
    "compound": "CN(C)CCCOC1(Cc2ccccc2)CCCCCC1",
    "experimentalSystem": "Cytochrome P450 2D6 (Homo sapiens)",
    "group": "active"
  },
  {
    "compound": "C/C=C(\\C)C(=O)OCc1ccccc1",
    "experimentalSystem": "Cytochrome P450 2D6 (Homo sapiens)",
    "group": "inactive"
  },
  {
    "compound": "O=C(N/N=C/c1ccccc1O)c1ccncc1",
    "experimentalSystem": "Cytochrome P450 2D6 (Homo sapiens)",
    "group": "active"
  },
  {
    "compound": "CCCCC(CC)CN=C(N)NC(N)=NCCCCCCN=C(N)NC(N)=NCC(CC)CCCC (configuration not stated)",
    "experimentalSystem": "Cytochrome P450 2D6 (Homo sapiens)",
    "group": "active"
  },
  {
    "compound": "Cc1c(C)c2c(c(C)c1O)CCC(C)(COc1ccc(CC3SC(=O)NC3=O)cc1)O2 (configuration not stated)",
    "experimentalSystem": "Cytochrome P450 2D6 (Homo sapiens)",
    "group": "inactive"
  },
  {
    "compound": "O=C(Nc1cccc(Cl)c1)OCC#CCCl",
    "experimentalSystem": "Cytochrome P450 2D6 (Homo sapiens)",
    "group": "active"
  },
  {
    "compound": "O=c1[nH]sc2cc(Cl)ccc12",
    "experimentalSystem": "Cytochrome P450 2D6 (Homo sapiens)",
    "group": "inactive"
  },
  {
    "compound": "CCCCCCCC/C=C/CCCCCCCC1=NCCN1CCO",
    "experimentalSystem": "Cytochrome P450 2D6 (Homo sapiens)",
    "group": "active"
  },
  {
    "compound": "CCC(C)(C)C1CCCCC1OC(C)=O (configuration not stated)",
    "experimentalSystem": "Cytochrome P450 2D6 (Homo sapiens)",
    "group": "inactive"
  },
  {
    "compound": "CC1(C)CCC(C)(C)c2cc(C(=O)Nc3ccc(C(=O)O)cc3)ccc21",
    "experimentalSystem": "Cytochrome P450 2D6 (Homo sapiens)",
    "group": "inactive"
  }
]
